GI50 listing for selected molecules.
- Test system: HCT-116
- TEST METHOD NOTES: NCI tumour cell line growth inhibition, 48 h
The source made the active and inactive calls. No stated cut-off is given here; in the data, active = GI50 up to about 1.1 µM and inactive = higher.

Consider the following illustrative entries.
MOLECULE: C/C(CCn1[nH]c(=O)ccc1=O)=N\N=C(N)N
REPORTED: > 100 µM (inactive)

MOLECULE: C1C2CC3CC1CC(c1nn4c(C56CC7CC(CC(C7)C5)C6)nnc4s1)(C2)C3
REPORTED: > 100 µM (inactive)

MOLECULE: CC(C)=NNc1snnc1C(N)=O
REPORTED: > 100 µM (inactive)

MOLECULE: COc1ccc(/C=C/C(=O)c2sc(-n3nc(-c4ccccc4)cc3-c3ccccc3)nc2C)cc1
REPORTED: > 10 µM (inactive)

MOLECULE: O=[N+]([O-])c1ccc(C2=NN(c3ccccc3)C[N+](c3ccc(Br)cc3)=N2)cc1
REPORTED: 89.5 µM (inactive)

Query (molecule): CCc1n[nH]c(=O)n1/N=C/c1ccc(/C=N/n2c(CC)n[nH]c2=O)cc1 ; field requested: GI50
> 100 µM (inactive)

Query (molecule): CC(=O)OCCc1cc2ccccc2oc1=O ; field requested: GI50
> 100 µM (inactive)

Query (molecule): CN(C)NC1=C([N+](=O)[O-])C=NN(c2ccccc2)C1 ; field requested: GI50
1.82 µM (inactive)

Query (molecule): CCN(CC)CCn1c2ccccc2c(=O)c2c(O)ccc(O)c21 ; field requested: GI50
31.1 µM (inactive)

Query (molecule): COCc1cc2c(cc1/C=C/[N+](=O)[O-])OCO2 ; field requested: GI50
17.9 µM (inactive)

Query (molecule): O=C1CC(c2cccc(Cl)c2)n2cccc21 (stereo unspecified) ; field requested: GI50
> 100 µM (inactive)

* * *

GI50 listing for selected compounds.
- System: SK-OV-3
- TEST METHOD NOTES: NCI tumour cell line growth inhibition, 48 h
The source made the active and inactive calls. Cut-off read from the data, not from the text of the source: active = GI50 up to about 1.1 µM and inactive = higher.

Query (compound): COc1cc(-c2nc3ccccn3c2/N=C/c2cc(Br)cc(Br)c2O)ccc1O ; field requested: GI50
23.9 µM (inactive)

Query (compound): OC(c1ccccc1)(c1cccnc1)C(O)(c1ccccc1)c1cccnc1 (stereo unspecified) ; field requested: GI50
> 100 µM (inactive)

Query (compound): COc1cccc(Nc2nc(-c3cccs3)nc3cc(OC)c(OC)cc23)c1 ; field requested: GI50
53 µM (inactive)

Query (compound): O=C1/C(=C(\Nc2ccccc2)c2ccccc2)C=NN1c1ccccc1 ; field requested: GI50
> 100 µM (inactive)

Query (compound): Cc1ccc(S(=O)(=O)N(CC(=O)O)c2ccccc2)cc1 ; field requested: GI50
> 100 µM (inactive)

Query (compound): CCCCCCCCCCCCCCCCCCNC(=O)C(N)Cc1ccc(OCc2ccccc2)cn1 (stereo unspecified) ; field requested: GI50
22.7 µM (inactive)

* * *

- Tested on: SK-MEL-5
- TEST METHOD NOTES: NCI tumour cell line growth inhibition, 48 h
The source made the active and inactive calls. Cut-off read from the data, not from the text of the source: active = GI50 up to about 1.1 µM and inactive = higher.
The categories you may choose from are yes (active), no (inactive)

Worked cases, answers included:
COMPOUND: Cc1cc2c3ccccc3n(C)c2c2c1C(=O)C=CC2=O
ASSIGNED LABEL: no
--
COMPOUND: COc1nc2cccc(C(O)c3ccccc3)c2nc1-c1ccccc1 (stereo not given)
ASSIGNED LABEL: no
--
COMPOUND: O=C(NCCCN(CCCCN(CCCNC(=O)C(F)(F)F)Cc1ccccc1)Cc1ccccc1)C(F)(F)F
ASSIGNED LABEL: no
--
COMPOUND: Nc1ccc(Oc2ccc(C34CC5CC6C3CC3CC4C(C5)C6(c4ccc(Oc5ccc(N)cc5)cc4)C3)cc2)cc1
ASSIGNED LABEL: yes

Can you look up the reported call for COc1ccc2c(c1)CCc1c-2n(CCN2CCOCC2)c2ccc(OC)cc12 for me?
no

Can you look up the reported call for Cc1[nH]n(-c2ncc(C#N)c(=O)[nH]2)c(=O)c1CCO for me?
no

Can you look up the reported call for COc1ccc(O)c(C(=O)CCC(=O)O)c1 for me?
no

All figures here come from ChEMBL document CHEMBL1201862.
